These entries and their values trace back to paper PMC6154636.

# METHOD SUMMARY: Stability of the seven analytes in rat plasma (method validation)
# Type: in vitro ADME
# CONDITION: three freeze–thaw cycles, high QC level (80.0 or 150 ng/mL), n = 6
# Method: Stability The short-term and long-term stability of seven analytes in rat plasma in auto-sampler vials for 24 h, at −20 °C for 30 days and after three freeze–thaw cycles was assessed, and also carried out in six replicates samples at three QC levels (low, medium and high). Stability: The analytes would be considered stable when the accuracy bias was within ±15% of the nominal concentrations (or ±20% for LLOQ).
MEASURE NAME: Freeze-Thaw RSD (%)
The answer is to be given in %; state only the numeric part.

COMPOUND	UNIT STRING	DATA VALUE
COc1ccc(-c2coc3cc(O)ccc3c2=O)cc1O	%	12.92

(Q) Any idea what its Freeze-Thaw RSD is? The compound is COc1c2c(cc3oc(C)cc(=O)c13)OC(C(C)(C)OC1OC(CO)C(O)C(O)C1O)C2 (centres unmarked)
(A) 8.53

(Q) Cc1cc(=O)c2c(O)c3c(cc2o1)OC(C)(C)[C@@H](O[C@@H]1O[C@H](CO)[C@@H](O)[C@H](O)[C@H]1O)C3 , same question.
(A) 9.64

(Q) COc1ccc(-c2coc3cc(O)ccc3c2=O)cc1 , same question.
(A) 10.58

(Q) CC(C)(O)C1CCC(C)(C2C(O)CC3(C)C4CC(OC5OC(CO)C(O)C(O)C5O)C5C(C)(C)C(OC6OCC(O)C(O)C6O)CCC56CC46CCC23C)O1 (centres unmarked) [Astragaloside] , same question.
(A) 11.51

---

# METHOD SUMMARY: Stability of the seven analytes in rat plasma (method validation)
# Type: in vitro ADME
# CONDITION: auto-sampler vials for 24 h, low QC level (0.25, 0.50 or 1.50 ng/mL), n = 6
MEASURE NAME: Short-Term RSD (%)
The answer is to be given in %; state only the numeric part.

Solved cases below.
COMPOUND	UNIT STRING	Short-Term RSD
CC(C)(O)C1CCC(C)(C2C(O)CC3(C)C4CC(OC5OC(CO)C(O)C(O)C5O)C5C(C)(C)C(OC6OCC(O)C(O)C6O)CCC56CC46CCC23C)O1 (centres unmarked) [Astragaloside]	%	7.06
COc1c2c(cc3oc(C)cc(=O)c13)OC(C(C)(C)OC1OC(CO)C(O)C(O)C1O)C2 [4-O-beta-D-glucosyl-5-O-methylvisamminol]	%	3.89
COc1ccc(-c2coc3cc(O)ccc3c2=O)cc1 [Formononetin]	%	2.35
COc1ccc(-c2coc3cc(O)ccc3c2=O)cc1O [Calycosin]	%	4.18

Please turn your attention to the following entry.
(Q) Any idea what its Short-Term RSD is? The compound is Cc1cc(=O)c2c(O)c3c(cc2o1)OC(C)(C)[C@@H](O[C@@H]1O[C@H](CO)[C@@H](O)[C@H](O)[C@H]1O)C3 [Sec-O-Glucosylhamaudol]
(A) 2.75

---

Each entry below lists one item and its recorded Short-Term RSD value.
# METHOD SUMMARY: Stability of the seven analytes in rat plasma (method validation)
# Type: in vitro ADME
# CONDITION: auto-sampler vials for 24 h, medium QC level (1.50, 3.50 or 15.0 ng/mL), n = 6
The answer is to be given in %; state only the numeric part.

Solved cases below.
COMPOUND	MEASURE NAME	DATA VALUE
COc1c2c(cc3oc(C)cc(=O)c13)OC(C(C)(C)OC1OC(CO)C(O)C(O)C1O)C2 (centres unmarked)	Short-Term RSD	1.35
CC(C)(O)C1CCC(C)(C2C(O)CC3(C)C4CC(OC5OC(CO)C(O)C(O)C5O)C5C(C)(C)C(OC6OCC(O)C(O)C6O)CCC56CC46CCC23C)O1 (centres unmarked) [Astragaloside]	Short-Term RSD	1.06

(Q) Any idea what its Short-Term RSD is? The compound is Cc1cc(=O)c2c(O)c3c(cc2o1)OC(C)(C)[C@@H](O[C@@H]1O[C@H](CO)[C@@H](O)[C@H](O)[C@H]1O)C3
(A) 1.40

(Q) COc1ccc(-c2coc3cc(O)ccc3c2=O)cc1O , same question.
(A) 2.20

(Q) COc1ccc(-c2coc3cc(O)ccc3c2=O)cc1 , same question.
(A) 2.33

---

# METHOD SUMMARY: Stability of the seven analytes in rat plasma (method validation)
# Assay type: in vitro ADME
# CONDITION: −20 °C for 30 days, medium QC level (1.50, 3.50 or 15.0 ng/mL), n = 6
So basically: is Long-Term RSD under 8%? Then true (1). Not under? Then false (0).

Observe how each entry below is paired with its result.
COMPOUND	CLASS
COc1ccc(-c2coc3cc(O)ccc3c2=O)cc1	true (1)
Cc1cc(=O)c2c(O)c3c(cc2o1)OC(C)(C)[C@@H](O[C@@H]1O[C@H](CO)[C@@H](O)[C@H](O)[C@H]1O)C3	true (1)
COc1ccc(-c2coc3cc(O)ccc3c2=O)cc1O	false (0)

(Q) Identify whether the compound COc1c2c(cc3oc(C)cc(=O)c13)OC(C(C)(C)OC1OC(CO)C(O)C(O)C1O)C2 (centres unmarked) records Long-Term RSD below 8%.
(A) true (1)
